experiment: Plasma and brain concentrations by LC-MS/MS; assay type: in vivo, mice; conditions: mice n = 6, three oral doses 100 mg/kg in two days
Reported Brain Precursor by item:
Numeric answer only, unit µM assumed.

- Compound: "CC1CCC2(OC1)OC1CC3C4CCC5CC(OCC(=O)NCC6OC(O)C(O)C(O)C6O)CCC5(C)C4CCC3(C)C1C2C (stereo not shown)"
  Experimental Result: 0.025
- Compound: "C[C@H]1CC[C@@]2(OC1)O[C@H]1C[C@H]3[C@@H]4CC[C@@H]5C[C@@H](O[C@@H]6O[C@H](CO)[C@H](O)[C@H](O)[C@H]6O)CC[C@]5(C)[C@H]4CC[C@]3(C)[C@H]1[C@@H]2C"
  Experimental Result: 1.174

Moving on to another compound below.
Determine its reported Brain Precursor: C[C@H]1CC[C@@]2(OC1)O[C@H]1C[C@H]3[C@@H]4CC[C@@H]5C[C@@H](O)CC[C@]5(C)[C@H]4CC[C@]3(C)[C@H]1[C@@H]2C
1.042

* * *

// reported IC50 per item
test system: Aβ42 production in N2A-APPswe cells; test: Aβ42 in conditioned medium of N2A-APPswe cells by ELISA, 18 h treatment; format: cell-based; conditions: N2a-APPswe, read-out: IC50 in lowering Aβ42 production, N2A-APPswe cells; mean ± standard deviation; n ≥ 3
Reply with just the number (in µM).

Examples from the recorded data:
- Compound: "CC1CCC2(OC1)OC1CC3C4CCC5CC(OCC(=O)NCC6OC(O)C(O)C(O)C6O)CCC5(C)C4CCC3(C)C1C2C (stereo not drawn)"
  Unit Of Measure: "µM"
  Experimental Result: 7.3
- Compound: "C[C@H]1CC[C@@]2(OC1)O[C@H]1C[C@H]3[C@@H]4C[C@@H](O)[C@@H]5C[C@@H](O)CC[C@]5(C)[C@H]4CC[C@]3(C)[C@H]1[C@@H]2C"
  Unit Of Measure: "µM"
  Experimental Result: 45
- Compound: "C[C@H]1CC[C@@]2(OC1)O[C@H]1C[C@H]3[C@@H]4CC[C@@H]5CC(=O)CC[C@]5(C)[C@H]4CC[C@]3(C)[C@H]1[C@@H]2C"
  Unit Of Measure: "µM"
  Experimental Result: 50

Turning now to a further record.
Dear colleague, please send me the reported IC50 for CC1CCC2(OC1)OC1CC3C4CCC5CC(OCC(=O)O)CCC5(C)C4CCC3(C)C1C2C (stereo not drawn) when you can.
27

* * *

assay: Plasma and brain concentrations by LC-MS/MS; format: in vivo, mice; settings: mice n = 6, three repeated oral doses 100 mg/kg in two days
Assay Endpoint: Plasma Precursor (µM)
Give just the numeric value; µM need not be written.

- Compound: "CC1CCC2(OC1)OC1CC3C4CCC5CC(OCC(=O)NCC6OC(O)C(O)C(O)C6O)CCC5(C)C4CCC3(C)C1C2C (stereo not shown)"
  Assay Endpoint: "Plasma Precursor"
  Unit Of Measure: "µM"
  Experimental Result: 0.051
- Compound: "C[C@H]1CC[C@@]2(OC1)O[C@H]1C[C@H]3[C@@H]4CC[C@@H]5C[C@@H](O)CC[C@]5(C)[C@H]4CC[C@]3(C)[C@H]1[C@@H]2C"
  Assay Endpoint: "Plasma Precursor"
  Unit Of Measure: "µM"
  Experimental Result: 0.118
- Compound: "C[C@H]1CC[C@@]2(OC1)O[C@H]1C[C@H]3[C@@H]4CC[C@@H]5C[C@@H](O[C@@H]6O[C@H](CO)[C@H](O)[C@H](O)[C@H]6O[C@@H]6O[C@H](CO)[C@@H](O)[C@H](O)[C@H]6O)CC[C@]5(C)[C@H]4CC[C@]3(C)[C@H]1[C@@H]2C"
  Assay Endpoint: "Plasma Precursor"
  Unit Of Measure: "µM"
  Experimental Result: 0.050

Query Plasma Precursor for C[C@H]1CC[C@@]2(OC1)O[C@H]1C[C@H]3[C@@H]4CC[C@@H]5C[C@@H](O[C@@H]6O[C@H](CO)[C@H](O)[C@H](O)[C@H]6O)CC[C@]5(C)[C@H]4CC[C@]3(C)[C@H]1[C@@H]2C
3.361

* * *

system: Aβ42 production in N2A-APPswe cells; test: Aβ42 in conditioned medium of N2A-APPswe cells by ELISA, 18 h treatment; format: cell-based; details: N2a-APPswe, read-out: IC50 in lowering Aβ42 production, N2A-APPswe cells; mean ± standard deviation; n ≥ 3
Listed below: IC50 values for each entry.

Completed entries (count: 4):
- Molecule: "C[C@H]1CC[C@@]2(OC1)O[C@H]1C[C@H]3[C@@H]4CC[C@@H]5C[C@H](O)CC[C@]5(C)[C@H]4CC[C@]3(C)[C@H]1[C@@H]2C [Episarsasapogenin (20), episarsasapogenin]"
  Experimental Result: "> 100 µM"
- Molecule: "C[C@@H]1CC[C@@]2(OC1)O[C@H]1C[C@H]3[C@@H]4C[C@H](O)[C@H]5C[C@@H](O)CC[C@]5(C)[C@H]4CC[C@]3(C)[C@H]1[C@@H]2C"
  Experimental Result: "> 100 µM"
- Molecule: "C[C@@H]1CC[C@@]2(OC1)O[C@H]1C[C@H]3[C@@H]4C[C@@H](O)[C@@H]5C[C@@H](O)CC[C@]5(C)[C@H]4CC[C@]3(C)[C@H]1[C@@H]2C"
  Experimental Result: "> 100 µM"
- Molecule: "C[C@H]1CC[C@@]2(OC1)O[C@H]1C[C@H]3[C@@H]4C[C@H](O)[C@H]5C[C@@H](O)CC[C@]5(C)[C@H]4CC[C@]3(C)[C@H]1[C@@H]2C"
  Experimental Result: "> 100 µM"

# return recorded IC50 for input C[C@H]1CC[C@@]2(OC1)O[C@H]1C[C@H]3[C@@H]4CC[C@@H]5C[C@@H](O[C@@H]6O[C@H](CO)[C@H](O)[C@H](O)[C@H]6O[C@@H]6O[C@H](CO)[C@@H](O)[C@H](O)[C@H]6O)CC[C@]5(C)[C@H]4CC[C@]3(C)[C@H]1[C@@H]2C
~2.3 µM
